Target: T1, human ENTPD2, full length, on cells (human, UniProt Q9Y5L3 1-495)
T1 sequence: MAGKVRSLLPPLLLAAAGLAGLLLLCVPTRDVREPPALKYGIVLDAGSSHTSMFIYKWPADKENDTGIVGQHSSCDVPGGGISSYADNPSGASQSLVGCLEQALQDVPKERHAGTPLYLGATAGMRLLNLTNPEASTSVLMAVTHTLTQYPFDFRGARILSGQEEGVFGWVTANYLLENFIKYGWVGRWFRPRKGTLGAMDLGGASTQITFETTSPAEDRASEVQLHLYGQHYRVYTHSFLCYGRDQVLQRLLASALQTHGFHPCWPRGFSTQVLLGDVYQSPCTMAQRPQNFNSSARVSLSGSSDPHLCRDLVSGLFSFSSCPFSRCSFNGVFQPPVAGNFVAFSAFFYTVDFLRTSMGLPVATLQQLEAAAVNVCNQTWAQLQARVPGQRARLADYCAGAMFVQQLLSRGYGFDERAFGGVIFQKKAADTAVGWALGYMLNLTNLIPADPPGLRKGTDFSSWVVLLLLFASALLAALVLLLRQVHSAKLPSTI
Assay: cell-based or functional assay
Assignment: determine reported Human ENTPD2 NIH/3T3 Assay IC50 for the given binders.
Write the value in nM as a bare number.

Human ENTPD2 NIH/3T3 Assay IC50 reading for ANTI-HUMAN ENTPD2 MAB3 (antibody, human IgG1, kappa, V domains shown) VH: QVQLVQSGAEVVKPGASVKISCKASGYTFTDYNMDWVKQAPGQRLEWIGDINPKYDISTYNQQFKGKATITVDTSASTAYMELSSLRSEDTAVYYCARRGFFLYYGINYYYFDVWGQGTLVTVSS VL: EIVLTQSPATLSASPGERITLSCSASSSVSYIHWYQQKPGQAPRLLIYSTSNLASGIPARFSGSGSGTFYTLTISSVEPEDAAVYYCHQWSSYPWTFGGGTKLEIKR : 1.8

In plain terms, ANTI-HUMAN ENTPD2 MAB8 (antibody, human IgG1, lambda, V domains shown) VH: QVQLQQSGPGLVKPSQTLSLTCAISGDSVSSSSAAWNWIRQSPSRGLEWLGRIYYRSKWYNDYAVSVKSRITINPDTSKNQFSLQLNSVTPEDTAVYYCARGSYVTSSYEGFDYWGQGTLVTVSS VL: SYELTQPLSVSVALGQTARITCSGDNLPEKYAYWYQQKPGQAPVLVIYDDNKRPSGIPERFSGSNSGNTATLTISRAQAGDEADYYCQSYGKWGWTWVFGGGTKLTVLG has a documented Human ENTPD2 NIH/3T3 Assay IC50 of 0.1

The binder ANTI-HUMAN ENTPD2 MAB10 (antibody, human IgG1, lambda, V domains shown) VH: QVQLVQSGAEVKKPGSSVKVSCKASGGTFDSYAVSWVRQAPGQGLEWMGRIVPWLGFTRYAQKFQGRVTITADESTSTAYMELSSLRSEDTAVYYCARESPGYRYSFDVWDQGTLVTVSS VL: SYELTQPLSVSVALGQTARITCSGDAIGEKYVYWYQQKPGQAPVLVIYDDNNRPSGIPERFSGSNSGNTATLTISRAQAGDEADYYCASYDLQQARWVFGGGTKLTVLG showed Human ENTPD2 NIH/3T3 Assay IC50 equal to 0.4
